B1: HDV Ribozyme (parent)
chain: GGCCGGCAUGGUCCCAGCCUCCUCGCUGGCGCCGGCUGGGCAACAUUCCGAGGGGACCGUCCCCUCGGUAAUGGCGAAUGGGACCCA

Variants of: B1
Assay: self-cleavage, relative activity (ratio to wild type); higher = more cleavage; co-transcriptional
Mark T for reported self-cleavage of 0.4 or greater; mark F for anything smaller.

Previously resolved entries follow.
• GGCCGGCAUGGUCCCAGCCUCCUCGCUGGCGCCGCCUGGGCCACAUUCCGAGGGGACCGUCCCCUCGGUAAUGGCGAAUGGGACCCA [G35C A42C] = F
• GGCCGGCAUGGUCCCAGCCUCCUCGCUGGCGCCGGCUUGGCAACAUUCCGAGGGGACCGUCCCCUCAGUAAUGGCGAAUGGGACCCA [G38U G67A] = F
• GGCCCGCAUGGUCCCAGCCUCCUCGCUGGCGCCGGCUGGGCAACAUUCCGGGGGGACCGUCCCCUCGGUAAUGGCGAAUGGGACCCA [G5C A51G] = F

Given GGCCGGCAUGGUCCCAGCCUCCUCGCCGGCGCCGGCUGGGCAACAUUCCGAGGGGACCGUCCCGUCGGUAAUGGCGAAUGGGACCCA [U27C C64G] , state whether its self-cleavage is at least 0.4.
T

Given GGCCGGCAUGGUCCCAGCAUCCUCGCUGGCGCCGGCUGGGCAACAUUCCGAGGGGACCGUCCCCUCGGUAAUGGCGAAUGGAACCCA [C19A G82A] , state whether its self-cleavage is at least 0.4.
F

Given GGGCGGCAUGGUCCCAGCCUCCUCGCUGGCGCCGGCUGGGCAACAUUCCGAGGGGACUGUCCCCUCGGUAAUGGCGAAUGGGACCCA [C3G C58U] , state whether its self-cleavage is at least 0.4.
T
